STUDY_SYSTEM: HLA-A*02:01 (Homo sapiens, UniProt P04439, D140Y/D185E/D98H/E176V/E277Q/G131W/G231S/I119V/I121R/I166T/I218V/L300P/L318F/N151K/N90K/P208A/P217A/Q86G/Q94H/R138H/R169H/T345S)
ASSAY_METHOD_TEXT: REVEAL Epitope Discovery System in vitro MHC-peptide binding score
RUN_CONDITIONS: REVEAL score, positive control peptide set at 100%; greater than 50 = good or high affinity binding
Experimental: Actual binding affinities for certain HLA class I alleles (A*02:01, A*03:01. A*11:01, and B*08:01) were assessed in vitro for exemplary overlapping 9 amino acid peptide sequences within a portion of the 26 amino acid junction region spanning the CD28 and 4-1BB junction. […] In addition, a series of overlapping 9-mer peptides of each of a number of different variants of this portion also were assessed, each variant containing a mutation or mutations in this region as described in Example 2. […]
Entries and their measured A*02:01 In Vitro Score follow.
Note: the reply should be a number with no unit written.

Examples from the recorded data:
{"CONSTRUCT_SEQUENCE": "VAFIIFWVK [9-mer of CD28/4-1BB junction region, mutation none]", "VALUE": 0.70}
{"CONSTRUCT_SEQUENCE": "IFWVQRGAK [9-mer variant junction peptide, K28Q/R31A]", "VALUE": 11.70}
{"CONSTRUCT_SEQUENCE": "IFWVKRGAK [9-mer variant junction peptide, R31A]", "VALUE": 13.80}
{"CONSTRUCT_SEQUENCE": "IFWVQRGNK [9-mer variant junction peptide, K28Q/R31N]", "VALUE": 16.10}
{"CONSTRUCT_SEQUENCE": "IFWVKRGLK [9-mer variant junction peptide, R31L]", "VALUE": 2.40}
{"CONSTRUCT_SEQUENCE": "IIFWVHRGR [9-mer variant junction peptide, K28H]", "VALUE": 4.70}
{"CONSTRUCT_SEQUENCE": "IIFWVQRGA [9-mer variant junction peptide, K28Q/R31A]", "VALUE": 95.30}
{"CONSTRUCT_SEQUENCE": "AFIIFWVHR [9-mer variant junction peptide, K28H]", "VALUE": 0.30}
{"CONSTRUCT_SEQUENCE": "IIFWVQRGR [9-mer variant junction peptide, K28Q]", "VALUE": 5.80}
{"CONSTRUCT_SEQUENCE": "WVQRGNKKL [9-mer variant junction peptide, K28Q/R31N]", "VALUE": 4.30}

Q: Tell me A*02:01 In Vitro Score reported for IFWVSRGRK [9-mer variant junction peptide, K28S]
A: 1.30

Q: Return value of A*02:01 In Vitro Score for input FWVKRGLKK [9-mer variant junction peptide, R31L] , no commentary.
A: 9.40

Q: Kindly indicate its recorded A*02:01 In Vitro Score. Item: IFWVKRGHK [9-mer variant junction peptide, R31H]
A: 2.20

Q: Provide only the value of recorded A*02:01 In Vitro Score for VAFIIFWVR [9-mer variant junction peptide, K28R]
A: 1.20

Q: Give recorded A*02:01 In Vitro Score. IIFWVKRGA [9-mer variant junction peptide, R31A]
A: 85.90

Q: Input AFIIFWVAR [9-mer variant junction peptide, K28A] , output reported A*02:01 In Vitro Score.
A: 2.20

Q: Indicate its recorded A*02:01 In Vitro Score; the sequence in question is IIFWVSRGR [9-mer variant junction peptide, K28S]
A: 2.60

Q: Using the record for WVKRGAKKL [9-mer variant junction peptide, R31A] , state its measured A*02:01 In Vitro Score.
A: 4.70
